test-system: T1, EsCas13d, nuclease-dead (Eubacterium siraeum, UniProt B0MS50, R295A;H300A;R849A;H854A)
T1 sequence: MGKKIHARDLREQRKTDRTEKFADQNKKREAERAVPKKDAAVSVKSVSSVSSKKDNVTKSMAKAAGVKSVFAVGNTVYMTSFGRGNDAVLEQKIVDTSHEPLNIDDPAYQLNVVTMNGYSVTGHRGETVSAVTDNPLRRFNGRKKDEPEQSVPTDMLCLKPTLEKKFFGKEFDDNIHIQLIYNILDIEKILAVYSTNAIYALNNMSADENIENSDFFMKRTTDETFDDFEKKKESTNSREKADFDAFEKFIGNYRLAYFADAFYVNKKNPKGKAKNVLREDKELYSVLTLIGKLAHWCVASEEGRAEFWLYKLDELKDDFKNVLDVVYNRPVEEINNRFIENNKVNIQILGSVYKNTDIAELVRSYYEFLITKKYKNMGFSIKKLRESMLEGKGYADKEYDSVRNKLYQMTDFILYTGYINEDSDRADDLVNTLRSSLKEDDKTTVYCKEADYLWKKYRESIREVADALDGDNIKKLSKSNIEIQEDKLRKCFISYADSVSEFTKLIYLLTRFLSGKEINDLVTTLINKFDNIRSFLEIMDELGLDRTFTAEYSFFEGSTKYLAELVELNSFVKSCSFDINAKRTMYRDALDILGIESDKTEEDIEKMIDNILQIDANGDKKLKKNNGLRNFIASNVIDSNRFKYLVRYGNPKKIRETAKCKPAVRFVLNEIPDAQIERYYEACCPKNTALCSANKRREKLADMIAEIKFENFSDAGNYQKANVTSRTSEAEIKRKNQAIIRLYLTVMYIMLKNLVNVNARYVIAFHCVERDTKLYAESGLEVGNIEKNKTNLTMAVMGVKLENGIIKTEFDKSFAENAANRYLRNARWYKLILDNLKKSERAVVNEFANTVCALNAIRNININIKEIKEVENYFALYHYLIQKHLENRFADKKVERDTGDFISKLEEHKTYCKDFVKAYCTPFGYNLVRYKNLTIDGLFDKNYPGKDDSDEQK
assay-overview: crRNA (strand 1, pre-loaded); Mg2+; 40 mM Tris-HCl pH 7.5, 150 mM NaCl, 6 mM MgCl2, 1 mM DTT, 0.1% Tween-20, 0.2 mg/ml BSA; 25 C; 10 min per concentration, then washed
condition-summary: tags: His6-TwinStrep-SUMO cleaved; N-terminal SNAP kept (SNAP-Surface 488); label: 3' end held by stalled T7 RNA polymerase
For each of the binders below, state its Kd.

Query :: So what does the record say about Kd for target 3 G4U,C6U (mixed) RNA 1: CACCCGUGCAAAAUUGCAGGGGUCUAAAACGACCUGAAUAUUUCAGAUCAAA RNA 2: GGGAAUGGAUCCACAUCUACGAAUUCGUUUUUGAUCUGAAAUAUUUAUGUCUGCAGAUCGGAAGAGCACACGU ?
Result :: 7.45 nM

Query :: Moving on to the next binder: target 1 MT 5'PFS UGC 3'PFS UCA (mixed) RNA 1: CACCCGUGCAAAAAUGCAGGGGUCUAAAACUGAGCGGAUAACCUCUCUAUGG RNA 2: GGGAAUGGAUCCACAUCUACGAAUUCUGCCCAUAGAGAGGUUAUCCGCUCAUCAAGAUCGGAAGAGCACACGU
Result :: 11.5 nM

Query :: Moving on to the next binder: target 1 G13U,G15A (mixed) RNA 1: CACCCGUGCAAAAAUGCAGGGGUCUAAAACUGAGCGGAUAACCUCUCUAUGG RNA 2: GGGAAUGGAUCCACAUCUACGAAUUCGUACCAUAGAAAUGUUAUCCGCUCACCGAGAUCGGAAGAGCACACGU
Result :: 22 nM

Query :: Moving on to the next binder: target 2 MT 5'PFS GGA 3'PFS UUC (mixed) RNA 1: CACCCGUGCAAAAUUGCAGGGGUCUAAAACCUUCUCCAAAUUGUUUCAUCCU RNA 2: GGGAAUGGAUCCACAUCUACGAAUUCGGAAGGAUGAAACAAUUUGGAGAAGUUCAGAUCGGAAGAGCACACGU
Result :: 28 nM

Query :: Moving on to the next binder: target 2 MT 5'PFS GCA 3'PFS CCA (mixed) RNA 1: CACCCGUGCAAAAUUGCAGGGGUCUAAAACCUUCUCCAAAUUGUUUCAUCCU RNA 2: GGGAAUGGAUCCACAUCUACGAAUUCGCAAGGAUGAAACAAUUUGGAGAAGCCAAGAUCGGAAGAGCACACGU
Result :: ~27 nM

Query :: Moving on to the next binder: target 1 insA 3' of 22,insA 3' of 5 (mixed) RNA 1: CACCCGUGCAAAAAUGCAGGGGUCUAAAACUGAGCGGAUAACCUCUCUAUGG RNA 2: GGGAAUGGAUCCACAUCUACGAAUUCGUACACAUAGAGAGGUUAUCCGACUCACCGAGAUCGGAAGAGCACACGU
Result :: 7.2 nM

Query :: Moving on to the next binder: target 1 U3A (mixed) RNA 1: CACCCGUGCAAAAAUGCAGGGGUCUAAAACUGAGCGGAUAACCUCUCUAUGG RNA 2: GGGAAUGGAUCCACAUCUACGAAUUCGUACCAUAGAGAGGUUAUCCGCACACCGAGAUCGGAAGAGCACACGU
Result :: 15 nM

Query :: Moving on to the next binder: target 1 U11G,G17U (mixed) RNA 1: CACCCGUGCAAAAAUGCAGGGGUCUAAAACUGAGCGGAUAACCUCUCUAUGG RNA 2: GGGAAUGGAUCCACAUCUACGAAUUCGUACCAUAUAGAGGGUAUCCGCUCACCGAGAUCGGAAGAGCACACGU
Result :: 47 nM
